# Tested on: U2OS
# Protocol Summary: Multiplex assay against U2OS
# Assay type: toxicity, cell-based
# Recorded Conditions: human, 48 h, 1 µM, compound concentration 1 uM, replicate 2
Below, each of the compounds is paired with its reported Population Pyknosed Nuclei (%) value.

[
  {
    "Compound": "Cc1ccc(OCC(O)C(C)NC(C)C)c2c1CCC2.Cl (stereo not drawn)",
    "Value Units": "%",
    "Population Pyknosed Nuclei (%)": 10
  },
  {
    "Compound": "O=C(O)CCC/C=C\\CC1C(O)CC(O)C1/C=C/C(O)COc1cccc(Cl)c1 (stereo not drawn) [CLOPROSTENOL]",
    "Value Units": "%",
    "Population Pyknosed Nuclei (%)": 7
  },
  {
    "Compound": "CCC(=O)OCC(=O)[C@@]1(OC(=O)CC)[C@@H](C)C[C@H]2[C@@H]3CCC4=CC(=O)C=C[C@]4(C)[C@@]3(Cl)[C@@H](O)C[C@@]21C [BECLOMETHASONE DIPROPIONATE]",
    "Value Units": "%",
    "Population Pyknosed Nuclei (%)": 14
  },
  {
    "Compound": "COc1cc(OC2CCN(C(C)=O)CC2)ccc1C(=O)N1CCC(N2C(=O)OCc3ccccc32)CC1",
    "Value Units": "%",
    "Population Pyknosed Nuclei (%)": 9
  },
  {
    "Compound": "COc1ccc2[nH]c(I)c(CCNC(C)=O)c2c1 [IODOMELATONIN]",
    "Value Units": "%",
    "Population Pyknosed Nuclei (%)": 5
  },
  {
    "Compound": "Nc1nc(CC(=O)Nc2ccc(CCNC[C@H](O)c3ccccc3)cc2)cs1 [MIRABEGRON]",
    "Value Units": "%",
    "Population Pyknosed Nuclei (%)": 13
  },
  {
    "Compound": "C[C@@H]1CC(=O)Nc2cccc(-c3ccc4c(c3)c(-c3cnn(C)c3)nn4C)c2N1",
    "Value Units": "%",
    "Population Pyknosed Nuclei (%)": 8
  },
  {
    "Compound": "Cc1cc(-c2ccc3c(c2)CC[C@H]3N2CC3(CCN(C(=O)Cc4cn5cc(C)sc5n4)CC3)C2)ncn1 [PF-5190457]",
    "Value Units": "%",
    "Population Pyknosed Nuclei (%)": 5
  }
]

---

Below, each of the compounds is paired with its reported Population Membrane Permeable-Phenotype (%) value.
# Tested on: Fibroblast
# Protocol Summary: Multiplex assay against human fibroblast
# Assay type: toxicity, cell-based
# Recorded Conditions: 24 h, 10 µM, compound concentration 10 uM, replicate 2
Readout Name: Population Membrane Permeable-Phenotype (%)

[
  {
    "Compound": "CN1CCC(C(=O)c2cccc(NC(=O)c3c(F)cc(F)cc3F)n2)CC1",
    "Obs Value": 5
  },
  {
    "Compound": "Cl.Cl.OCCOCCN1CCN(C(c2ccccc2)c2ccc(Cl)cc2)CC1 (stereo not drawn) [HYDROXYZINE HYDROCHLORIDE]",
    "Obs Value": 6
  },
  {
    "Compound": "O=C(Nc1cc(-c2ccccc2)nn1-c1ccccc1F)c1ccc([N+](=O)[O-])cc1",
    "Obs Value": 9
  },
  {
    "Compound": "Cc1nn(C)c2nc(NNC(=O)Nc3cc(Cl)nc(Cl)c3)cc(C(C)C)c12",
    "Obs Value": 0
  },
  {
    "Compound": "CC(C)(O)C(=O)N1CCN(c2ccc(C(F)(F)F)c(C3=C(c4c[nH]c5ccccc45)C(=O)NC3=O)c2)CC1",
    "Obs Value": 6
  },
  {
    "Compound": "COc1cc(C(=O)N2CC[C@@H](O)[C@@H](N)C2)cc2nc(-c3cc4ccccc4n3CC3CC3)n(C)c12.Cl",
    "Obs Value": 3
  },
  {
    "Compound": "COc1ccc2c(c1OCc1ccccc1)C[C@@H](C(=O)O)N(C(=O)C(c1ccccc1)c1ccccc1)C2",
    "Obs Value": 4
  },
  {
    "Compound": "COc1c(Nc2ccc(S(C)(=O)=O)nc2C)ncnc1OC1CCN(C(=O)OC(C)C)CC1",
    "Obs Value": 10
  }
]

---

Below, each of the molecules is paired with its reported Total Cell Count value.
# System: Fibroblast
# Protocol Summary: Multiplex assay against human fibroblast
# Type: toxicity, cell-based
# Recorded Conditions: 24 h, 10 µM, compound concentration 10 uM, replicate 1

[
  {
    "Molecule": "COc1cc2nc(N3CCN(C(=O)c4ccco4)CC3)nc(N)c2cc1OC.Cl [PRAZOSIN HYDROCHLORIDE]",
    "Total Cell Count": 201
  },
  {
    "Molecule": "Cc1nn(C)c2nc(NNC(=O)Nc3cc(Cl)nc(Cl)c3)cc(C(C)C)c12",
    "Total Cell Count": 130
  },
  {
    "Molecule": "Cc1sc2c(c1C)C(c1ccc(Cl)cc1)=N[C@H](CC(=O)OC(C)(C)C)c1nnc(C)n1-2",
    "Total Cell Count": 123
  },
  {
    "Molecule": "Cc1cc(=O)n(C)c2cc(N3C(=O)CC[C@H](NS(=O)(=O)CC(C)C)[C@H]3c3ccc(Cl)cc3)ccc12",
    "Total Cell Count": 150
  },
  {
    "Molecule": "CSc1nc(NC2CCCC2)c([N+](=O)[O-])c(NC2CCCC2)n1",
    "Total Cell Count": 172
  },
  {
    "Molecule": "CCn1c(-c2nc3cc(C(=O)N4CCCC(N)C4)ccc3n2C)cc2ccccc21.Cl (stereo not drawn)",
    "Total Cell Count": 231
  },
  {
    "Molecule": "Cc1cc(-c2ccc3c(c2)CC[C@H]3N2CC3(CCN(C(=O)Cc4cn5cc(C)sc5n4)CC3)C2)ncn1",
    "Total Cell Count": 180
  },
  {
    "Molecule": "CC(F)(F)CN1CCOc2c(nn(-c3ccccc3Cl)c2-c2ccc(Cl)cc2)C1=O",
    "Total Cell Count": 111
  }
]

---

# Tested on: Fibroblast
# Protocol Summary: Multiplex assay against human fibroblast
# Format: toxicity, cell-based
# Recorded Conditions: 12 h, 1 µM, compound concentration 1 uM, replicate 1
Non-standard residues stand in square brackets, D forms with d. Residues, ends and D or L forms follow the SMILES beside them.
Decide using Population Mitotic Cells (%) alone. Strictly below 50%: Satisfied. Equal to or above 50%: Not satisfied.

[
  {
    "Compound": "CCCCCCNC(=O)Nc1ccc(S(=O)(=O)Nc2ccc(CCNC[C@H](O)COc3ccc(O)cc3)cc2)cc1",
    "Label Class": "Not satisfied"
  },
  {
    "Compound": "CC(C)(C)c1ccc(CSc2cnn(C(C)(C)C)c(=O)c2Cl)cc1",
    "Label Class": "Not satisfied"
  },
  {
    "Compound": "CC(C)C[C@H](CO)Nc1nc(S[C@@H](C)c2ccccc2)nc2nc(N)sc12",
    "Label Class": "Not satisfied"
  },
  {
    "Compound": "Cn1cc(C(=O)OCC2CCN(CCNS(C)(=O)=O)CC2)c2ccccc21",
    "Label Class": "Not satisfied"
  },
  {
    "Compound": "COc1ccc2c(c1OCc1ccccc1)C[C@@H](C(=O)O)N(C(=O)C(c1ccccc1)c1ccccc1)C2",
    "Label Class": "Not satisfied"
  },
  {
    "Compound": "COCCn1c(C)c(C)s/c1=N\\C(=O)C1C(C)(C)C1(C)C",
    "Label Class": "Not satisfied"
  },
  {
    "Compound": "S=C(NCCCc1c[nH]cn1)NCCCN(Cc1ccc(Cl)c(Cl)c1)c1ccc(Br)cn1",
    "Label Class": "Not satisfied"
  },
  {
    "Compound": "Cc1ccc(OCC(O)C(C)NC(C)C)c2c1CCC2.Cl (centres undefined)",
    "Label Class": "Not satisfied"
  },
  {
    "Compound": "CCCCC[C@H](O)/C=C/[C@H]1[C@H](O)CC(=O)[C@@H]1CCCCCCC(=O)O",
    "Label Class": "Satisfied"
  },
  {
    "Compound": "Cc1cc(O)c(-c2ccc([C@@H](C)CN(C)C)cc2)c2c1[nH]c(=O)c1sccc12",
    "Label Class": "Satisfied"
  },
  {
    "Compound": "N[C@](CC1c2ccccc2Oc2ccccc21)(C(=O)O)[C@H]1C[C@@H]1C(=O)O",
    "Label Class": "Not satisfied"
  },
  {
    "Compound": "OCCCNc1cc(-c2ccnc(Nc3cccc(Cl)c3)n2)ccn1",
    "Label Class": "Satisfied"
  },
  {
    "Compound": "Cc1nn(C)c2nc(NNC(=O)Nc3cc(Cl)nc(Cl)c3)cc(C(C)C)c12",
    "Label Class": "Satisfied"
  },
  {
    "Compound": "CN1CCC(C(=O)c2cccc(NC(=O)c3c(F)cc(F)cc3F)n2)CC1",
    "Label Class": "Not satisfied"
  },
  {
    "Compound": "CCC(=O)OCC(=O)[C@@]1(OC(=O)CC)[C@@H](C)C[C@H]2[C@@H]3CCC4=CC(=O)C=C[C@]4(C)[C@@]3(Cl)[C@@H](O)C[C@@]21C [BECLOMETHASONE DIPROPIONATE]",
    "Label Class": "Not satisfied"
  },
  {
    "Compound": "CC(F)(F)CN1CCOc2c(nn(-c3ccccc3Cl)c2-c2ccc(Cl)cc2)C1=O",
    "Label Class": "Not satisfied"
  },
  {
    "Compound": "CC(C)C[C@@H]1NC(=O)[C@@H](C(C)C)NC(=O)[C@@H]2CCCN2C(=O)[C@@H](CC(=O)O)NC(=O)[C@@H](Cc2c[nH]c3ccccc23)NC1=O [BQ-123] (cyclo(L[dW][dD]P[dV]))",
    "Label Class": "Satisfied"
  },
  {
    "Compound": "C[C@@H]1CC(=O)Nc2cccc(-c3ccc4c(c3)c(-c3cnn(C)c3)nn4C)c2N1",
    "Label Class": "Not satisfied"
  },
  {
    "Compound": "Nc1nc(CC(=O)Nc2ccc(CCNC[C@H](O)c3ccccc3)cc2)cs1",
    "Label Class": "Satisfied"
  },
  {
    "Compound": "CCn1c(-c2nc3cc(C(=O)N4CCCC(N)C4)ccc3n2C)cc2ccccc21.Cl (centres undefined)",
    "Label Class": "Satisfied"
  },
  {
    "Compound": "Cl.Cl.OCCOCCN1CCN(C(c2ccccc2)c2ccc(Cl)cc2)CC1 (centres undefined) [HYDROXYZINE HYDROCHLORIDE]",
    "Label Class": "Not satisfied"
  },
  {
    "Compound": "CC(C)(O)C(=O)N1CCN(c2ccc(C(F)(F)F)c(C3=C(c4c[nH]c5ccccc45)C(=O)NC3=O)c2)CC1",
    "Label Class": "Not satisfied"
  },
  {
    "Compound": "CN1CCN2c3ccccc3Cc3ccccc3C2C1.Cl (centres undefined) [MIANSERIN HYDROCHLORIDE]",
    "Label Class": "Satisfied"
  },
  {
    "Compound": "Cc1cc(-c2ccc3c(c2)CC[C@H]3N2CC3(CCN(C(=O)Cc4cn5cc(C)sc5n4)CC3)C2)ncn1",
    "Label Class": "Not satisfied"
  },
  {
    "Compound": "COC(c1ccccc1)(c1ccccc1)[C@H](Oc1nc(C)cc(C)n1)C(=O)O",
    "Label Class": "Satisfied"
  },
  {
    "Compound": "Cc1cc(=O)n(C)c2cc(N3C(=O)CC[C@H](NS(=O)(=O)CC(C)C)[C@H]3c3ccc(Cl)cc3)ccc12",
    "Label Class": "Not satisfied"
  },
  {
    "Compound": "COCCCN1CCC(NC(=O)c2cc(Cl)c(N)c3c2OCC3)CC1 [PRUCALOPRIDE]",
    "Label Class": "Not satisfied"
  },
  {
    "Compound": "COc1c(Nc2ccc(S(C)(=O)=O)nc2C)ncnc1OC1CCN(C(=O)OC(C)C)CC1",
    "Label Class": "Satisfied"
  },
  {
    "Compound": "C=CCN1C[C@H](C(=O)N(CCCN(C)C)C(=O)NCC)C[C@@H]2c3cccc4[nH]cc(c34)C[C@H]21",
    "Label Class": "Satisfied"
  },
  {
    "Compound": "CCc1nn2c(C)cc(C)nc2c1Cc1ccc(-c2nnc(C3CCNCC3)o2)cc1",
    "Label Class": "Not satisfied"
  },
  {
    "Compound": "COc1cc2nc(N3CCN(C(=O)c4ccco4)CC3)nc(N)c2cc1OC.Cl [PRAZOSIN HYDROCHLORIDE]",
    "Label Class": "Not satisfied"
  },
  {
    "Compound": "COc1ccc2[nH]c(I)c(CCNC(C)=O)c2c1",
    "Label Class": "Satisfied"
  }
]
